The reported measurements were obtained from paper PMC4706877.

Test system: tetracycline, erythromycin, and polymyxin-resistant Proteus mirabilis (Pr2921)
Test: Agar dilution MIC / MBC
Type: cell-based
Conditions: P. mirabilis, value in parentheses
Structures can show the parent of a compound that is named as a salt.
endpoint: MBC

1) CC[C@H]1OC(=O)[C@H](C)[C@@H](O[C@H]2C[C@@](C)(OC)[C@@H](O)[C@H](C)O2)[C@H](C)[C@@H](O[C@@H]2O[C@H](C)C[C@H](N(C)C)[C@H]2O)[C@](C)(O)C[C@@H](C)C(=O)[C@H](C)[C@@H](O)[C@]1(C)O [Erythromycin, erythromycin, reference compound]    > 500 µg/mL
2) O=C1C[C@@H](c2ccccc2)Oc2cc(O)cc(O)c21 [Compound 3, pinocembrin]    > 500 µg/mL
3) CNC(C)C1CCC(N)C(OC2C(N)CC(N)C(OC3OCC(C)(O)C(NC)C3O)C2O)O1 (stereo not drawn) [Gentamicin, Gentamicin sulfate, reference compound]    10 µg/mL
4) O=C(/C=C/c1ccc(O)cc1)c1ccc(O)cc1O [Compound 2, isoliquiritigenin]    > 500 µg/mL
5) O=C(/C=C/c1ccccc1)c1ccc(O)cc1O [Compound 1, 2′,4′-dihydroxychalcone]    125 µg/mL

Next compound, MBC to be filled in.
Give the value of MBC reported for the following: COc1cc(C2CC(=O)c3ccc(O)cc3O2)ccc1O (stereo not drawn) [Compound 5, 7,4′-dihydroxy-3′-methoxyflavanone]
> 500 µg/mL

----------
Counter-ions that a name gives are not always drawn.
# Staphylococcus aureus subsp. aureus (ATCC 6538): MIC values follow
Report the value in µg/mL with no unit label.

Give MIC for `O=C(/C=C/c1ccc(O)cc1)c1ccc(O)cc1O` tested on Staphylococcus aureus subsp. aureus (ATCC 6538).
250

Give MIC for CNC(C)C1CCC(N)C(OC2C(N)CC(N)C(OC3OCC(C)(O)C(NC)C3O)C2O)O1 (stereo not drawn) [Gentamicin, Gentamicin sulfate, reference compound] tested on Staphylococcus aureus subsp. aureus (ATCC 6538).
8

Give MIC for `O=C1C[C@@H](c2ccccc2)Oc2cc(O)cc(O)c21` tested on Staphylococcus aureus subsp. aureus (ATCC 6538).
15

Give MIC for COc1cc(C2CC(=O)c3ccc(O)cc3O2)ccc1O (stereo not drawn) [Compound 5, 7,4′-dihydroxy-3′-methoxyflavanone] tested on Staphylococcus aureus subsp. aureus (ATCC 6538).
250

Give MIC for CC[C@H]1OC(=O)[C@H](C)[C@@H](O[C@H]2C[C@@](C)(OC)[C@@H](O)[C@H](C)O2)[C@H](C)[C@@H](O[C@@H]2O[C@H](C)C[C@H](N(C)C)[C@H]2O)[C@](C)(O)C[C@@H](C)C(=O)[C@H](C)[C@@H](O)[C@]1(C)O [Erythromycin, erythromycin, reference compound] tested on Staphylococcus aureus subsp. aureus (ATCC 6538).
1

Give MIC for O=C(/C=C/c1ccccc1)c1ccc(O)cc1O [Compound 1, 2′,4′-dihydroxychalcone] tested on Staphylococcus aureus subsp. aureus (ATCC 6538).
31
